Ref: patent US20240108746A1

- SYSTEM_UNDER_TEST: T1, Biotinylated CD3-specific binding domain SEQ ID NO: 13 (biotinylated (site not stated))
- T1 construct: Ligand on the neutravidin (NLC) SPR chip; The same domain is the CD3-specific domain of TCE #1
- T1 chain: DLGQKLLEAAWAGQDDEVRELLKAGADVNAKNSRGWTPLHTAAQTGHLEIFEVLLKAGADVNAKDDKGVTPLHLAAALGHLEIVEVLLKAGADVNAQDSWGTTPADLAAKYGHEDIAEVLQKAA
- METHOD_DESCRIPTION: SPR (ProteOn XPR36), 33 C, multi-trace; biotinylated ligand on chip, binder as analyte
METRIC_NAME: Kd (nM)

• Binder #1 (designed binder, expressed in E. coli and purified by its His-tag) MRGSHHHHHHGSDLGKKLLQAARAGQLDEVRELLKAGADVNAKDFKGLTPLHLAAAHGHLEIVEVLLKAGADVNAKDVYGWTPLHIAAASGHLEIVEVLLKAGADVNAKDWLGITPLHLAASHGHLEIVEVLLKAGADVNAQDKSGKTPADLAARAGHQDIAEVLQKAA = 0.04
